Target: Prostaglandin G/H synthase 2 (Homo sapiens, UniProt P35354)
Sequence (P35354 whole entry): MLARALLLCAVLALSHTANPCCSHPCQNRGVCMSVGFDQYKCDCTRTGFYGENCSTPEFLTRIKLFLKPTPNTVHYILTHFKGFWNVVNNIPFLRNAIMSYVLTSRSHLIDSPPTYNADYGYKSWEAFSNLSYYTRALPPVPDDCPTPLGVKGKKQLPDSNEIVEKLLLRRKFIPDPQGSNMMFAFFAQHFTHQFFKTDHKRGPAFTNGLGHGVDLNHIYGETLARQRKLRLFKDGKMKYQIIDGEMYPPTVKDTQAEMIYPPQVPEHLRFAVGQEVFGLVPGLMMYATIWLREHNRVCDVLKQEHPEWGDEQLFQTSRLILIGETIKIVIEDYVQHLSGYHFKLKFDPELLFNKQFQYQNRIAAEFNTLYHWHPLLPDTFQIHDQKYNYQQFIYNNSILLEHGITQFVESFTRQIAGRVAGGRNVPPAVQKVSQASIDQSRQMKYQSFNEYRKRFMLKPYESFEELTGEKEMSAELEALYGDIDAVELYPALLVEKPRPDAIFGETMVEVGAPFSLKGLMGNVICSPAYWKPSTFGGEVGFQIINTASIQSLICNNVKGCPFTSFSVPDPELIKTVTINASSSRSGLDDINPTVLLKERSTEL
Assay: Inhibition of COX-2 (unknown origin)
readout_name: pIC50
Reminder that pIC50 is minus the log10 of a molar concentration.

Examples with their reported pIC50 follow.
>  <smiles_representation>
Clc1ccc(-n2cc(CSc3nc4ccccc4o3)nn2)cc1

>  <experimental_value>
5.72

$$$$
>  <smiles_representation>
Brc1ccc(-n2cc(CSc3nc4ccccc4o3)nn2)cc1

>  <experimental_value>
5.55

$$$$
>  <smiles_representation>
COc1ccc(-n2cc(CSc3nc4ccccc4o3)nn2)cc1

>  <experimental_value>
5.64

$$$$
>  <smiles_representation>
Fc1ccccc1-n1cc(CSc2nc3ccccc3o2)nn1

>  <experimental_value>
5.62

$$$$
>  <smiles_representation>
O=[N+]([O-])c1ccc(-n2cc(CSc3nc4ccccc4o3)nn2)cc1

>  <experimental_value>
5.01

$$$$

Entry Brc1ccccc1-n1cc(CSc2nc3ccccc3o2)nn1 needs its pIC50 filled in; supply it. 5.56

Entry Clc1ccccc1-n1cc(CSc2nc3ccccc3o2)nn1 needs its pIC50 filled in; supply it. 5.45

Entry Fc1ccc(-n2cc(CSc3nc4ccccc4o3)nn2)cc1 needs its pIC50 filled in; supply it. 5.28

Entry c1ccc(-n2cc(CSc3nc4ccccc4o3)nn2)cc1 needs its pIC50 filled in; supply it. 5.19

Entry CCc1ccc(-n2cc(CSc3nc4ccccc4o3)nn2)cc1 needs its pIC50 filled in; supply it. 5.42

====

This document collects pIC50 values reported for Prostaglandin G/H synthase 1 (Homo sapiens).
Reminder that pIC50 is minus the log10 of a molar concentration.

Examples with their reported pIC50 follow.
>  <smiles_representation>
O=[N+]([O-])c1cccc(-n2cc(CSc3nc4ccccc4o3)nn2)c1

>  <system>
Prostaglandin G/H synthase 1 (Homo sapiens)
Sequence (P23219 whole entry): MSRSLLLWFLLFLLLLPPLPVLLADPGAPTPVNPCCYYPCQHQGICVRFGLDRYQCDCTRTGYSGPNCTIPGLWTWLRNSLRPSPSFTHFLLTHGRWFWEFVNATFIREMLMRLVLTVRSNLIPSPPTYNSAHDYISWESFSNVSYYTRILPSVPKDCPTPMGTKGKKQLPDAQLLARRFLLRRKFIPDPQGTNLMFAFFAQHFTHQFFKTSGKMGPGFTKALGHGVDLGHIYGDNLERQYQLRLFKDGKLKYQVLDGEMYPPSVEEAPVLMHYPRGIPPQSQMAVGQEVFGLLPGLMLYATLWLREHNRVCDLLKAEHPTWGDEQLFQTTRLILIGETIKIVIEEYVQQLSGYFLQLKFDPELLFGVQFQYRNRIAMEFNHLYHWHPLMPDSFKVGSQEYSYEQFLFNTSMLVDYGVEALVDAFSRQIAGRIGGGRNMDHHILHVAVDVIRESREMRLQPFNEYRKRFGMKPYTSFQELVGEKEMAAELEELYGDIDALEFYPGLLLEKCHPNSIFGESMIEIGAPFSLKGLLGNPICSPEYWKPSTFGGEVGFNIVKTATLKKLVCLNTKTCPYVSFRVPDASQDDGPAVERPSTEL

>  <pIC50>
3.98

$$$$
>  <smiles_representation>
O=[N+]([O-])c1ccc(-n2cc(CSc3nc4ccccc4o3)nn2)cc1

>  <system>
Prostaglandin G/H synthase 1 (Homo sapiens)

>  <pIC50>
3.94

$$$$
>  <smiles_representation>
Clc1cccc(-n2cc(CSc3nc4ccccc4o3)nn2)c1

>  <system>
Prostaglandin G/H synthase 1 (Homo sapiens)

>  <pIC50>
4.05

$$$$

Now take the following molecule into account.
Entry c1ccc(-n2cc(CSc3nc4ccccc4o3)nn2)cc1 needs its pIC50 filled in; supply it. 3.97
